- STUDY SYSTEM: T1, LTKTG-EGFL (human LTK amino acids 63-420) (human, UniProt P29376 63-420)
- T1 construct: Fc-His6 tag removed by caspase 3; also called LTK (in BLI, SEC-MALLS and ITC)
- T1 sequence: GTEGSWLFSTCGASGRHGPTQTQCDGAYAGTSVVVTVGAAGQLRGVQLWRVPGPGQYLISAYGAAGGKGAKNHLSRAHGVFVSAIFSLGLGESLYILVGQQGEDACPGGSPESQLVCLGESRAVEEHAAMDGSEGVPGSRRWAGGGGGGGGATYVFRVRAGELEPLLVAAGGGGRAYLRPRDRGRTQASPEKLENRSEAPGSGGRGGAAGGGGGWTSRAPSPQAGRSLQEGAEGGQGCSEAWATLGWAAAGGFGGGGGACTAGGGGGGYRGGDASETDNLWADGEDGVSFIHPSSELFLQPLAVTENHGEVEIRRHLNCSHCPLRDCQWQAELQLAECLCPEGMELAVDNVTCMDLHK
- ASSAY OVERVIEW: ITC at 310 K, LTKTG-EGFL (12 µM) titrated with ALKAL2 (56 µM), one-site model
pKd: −log10 of the molar value.

| BINDER | pKd |
| --- | --- |
| ALKAL2 (truncated, residues 78-152) (ligand, human, UniProt Q6UX46 78-152, looked up, range 78-152; Tag-free in ITC, SEC-MALLS, crystals and Ba/F3 assays; also called ALKAL2^WT; WT ALKAL2) PSPEQRVEIVPRDLRMKDKFLKHLTGPLYFSPKCSKHFHRLYHNTRDCTIPAYYKRCARLLTRLAVSPVCMEDKQ | 8.00 |
